The entries below are paired with their reported IC50.
system-under-test: Met (Homo sapiens (Human))
Sequence (P08581 25-1390): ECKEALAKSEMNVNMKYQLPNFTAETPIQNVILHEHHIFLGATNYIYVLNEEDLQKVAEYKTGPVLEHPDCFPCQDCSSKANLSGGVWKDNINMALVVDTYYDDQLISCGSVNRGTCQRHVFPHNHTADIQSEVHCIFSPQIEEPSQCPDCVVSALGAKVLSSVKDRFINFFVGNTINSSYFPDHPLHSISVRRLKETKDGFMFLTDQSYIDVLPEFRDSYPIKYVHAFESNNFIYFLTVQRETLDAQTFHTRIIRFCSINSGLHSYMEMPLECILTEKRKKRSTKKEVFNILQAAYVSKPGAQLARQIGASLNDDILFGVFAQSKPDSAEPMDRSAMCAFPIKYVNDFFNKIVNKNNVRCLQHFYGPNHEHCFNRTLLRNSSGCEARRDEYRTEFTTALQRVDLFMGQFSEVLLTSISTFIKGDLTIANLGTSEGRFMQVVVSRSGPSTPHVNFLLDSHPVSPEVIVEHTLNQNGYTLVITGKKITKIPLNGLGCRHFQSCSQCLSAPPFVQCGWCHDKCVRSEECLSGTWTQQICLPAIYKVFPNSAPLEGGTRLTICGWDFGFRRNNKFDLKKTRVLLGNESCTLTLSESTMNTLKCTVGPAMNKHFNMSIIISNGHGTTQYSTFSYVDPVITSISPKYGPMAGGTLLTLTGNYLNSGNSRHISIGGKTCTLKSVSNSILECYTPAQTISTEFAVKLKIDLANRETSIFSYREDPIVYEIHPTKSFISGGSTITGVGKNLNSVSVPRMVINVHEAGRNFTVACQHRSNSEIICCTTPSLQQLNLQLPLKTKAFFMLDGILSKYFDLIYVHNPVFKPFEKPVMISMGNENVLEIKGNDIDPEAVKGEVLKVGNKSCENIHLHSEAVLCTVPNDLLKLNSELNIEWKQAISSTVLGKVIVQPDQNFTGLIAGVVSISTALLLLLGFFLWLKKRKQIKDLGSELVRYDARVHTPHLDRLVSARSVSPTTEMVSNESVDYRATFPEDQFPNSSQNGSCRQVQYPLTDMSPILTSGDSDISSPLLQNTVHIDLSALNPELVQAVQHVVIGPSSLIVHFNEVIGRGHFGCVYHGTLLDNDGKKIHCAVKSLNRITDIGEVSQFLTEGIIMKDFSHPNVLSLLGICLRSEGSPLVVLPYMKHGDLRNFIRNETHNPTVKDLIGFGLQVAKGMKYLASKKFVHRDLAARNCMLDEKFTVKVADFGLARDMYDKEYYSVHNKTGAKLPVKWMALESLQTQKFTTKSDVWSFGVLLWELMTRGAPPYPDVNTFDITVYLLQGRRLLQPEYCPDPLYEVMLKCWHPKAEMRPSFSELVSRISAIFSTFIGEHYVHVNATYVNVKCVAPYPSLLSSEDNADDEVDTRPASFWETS
assay-text: Met autophosphorylation ELISA in PC-3 cells
Type: cell-based
conditions: cellular, HGF-stimulated, phospho-Met ELISA, read-out: c-Met IC50
measured-property: IC50

{"columns": ["compound", "result"],
 "data": [
  ["COc1cc2nccc(Oc3ncc(NC(=O)C4(C(=O)Nc5ccc(F)cc5)CC4)cc3F)c2cc1C(N)=O", "10 to 100 nM"],
  ["COc1cc2nccc(Oc3ncc(NC(=O)C4(C(=O)Nc5ccc(F)cc5)CC4)cc3Cl)c2cc1-c1ncco1", "10 to 100 nM"],
  ["COc1nc2c(Oc3ncc(NC(=O)C4(C(=O)Nc5ccc(F)cc5)CC4)cc3F)ccnc2cc1OCC(O)CO (stereo not drawn)", "10 to 100 nM"],
  ["COc1cc2nccc(Oc3ncc(NC(=O)C4(C(=O)Nc5ccc(F)cc5)CC4)cc3F)c2nc1OCCCN1CCOCC1", "> 300 nM"],
  ["COc1cc2nccc(Oc3ccc(NC(=O)C4(C(=O)Nc5ccc(F)cc5)CC4)c(C(N)=O)n3)c2nc1OC", "> 300 nM"],
  ["CNC(=O)c1cc2c(Oc3ccc(NC(=O)C4(C(=O)Nc5ccc(F)cc5)CC4)cn3)ccnc2cc1OC", "100 to 300 nM"],
  ["COc1cc2nccc(Oc3cc(C)c(NC(=O)C4(C(=O)Nc5ccc(F)cc5)CC4)cn3)c2nc1OC", "> 300 nM"],
  ["COc1cc2nccc(Oc3ncc(NC(=O)C4(C(=O)Nc5ccc(F)cc5)CC4)cc3Cl)c2cc1C(N)=O", "10 to 100 nM"],
  ["COc1nc2c(Oc3ncc(NC(=O)C4(C(=O)Nc5ccc(F)cc5)CC4)cc3F)ccnc2cc1OCCCN1CCOCC1", "10 to 100 nM"],
  ["O=C(Nc1ccc(F)cc1)C1(C(=O)Nc2cnc(Oc3ccnc4cc5c(nc34)OCCO5)c(F)c2)CC1", "> 300 nM"],
  ["COCCOc1cc2ncnc(Oc3ncc(NC(=O)C4(C(=O)Nc5ccc(F)cc5)CC4)cc3F)c2nc1OC", "> 300 nM"],
  ["COc1cc2ncnc(Oc3ccc(NC(=O)C4(C(=O)Nc5ccc(F)cc5)CC4)cn3)c2nc1OC", "> 300 nM"]
]}
